# TESTED SYSTEM: System L (Mus musculus, UniProt Q9Z127)
# Construct: Murine L1210 Leukemia cells were grown in RPMI 1630 medium; endogenous in cells; host or cells: murine L1210 leukemia cells
# Sequence (Q9Z127 whole entry): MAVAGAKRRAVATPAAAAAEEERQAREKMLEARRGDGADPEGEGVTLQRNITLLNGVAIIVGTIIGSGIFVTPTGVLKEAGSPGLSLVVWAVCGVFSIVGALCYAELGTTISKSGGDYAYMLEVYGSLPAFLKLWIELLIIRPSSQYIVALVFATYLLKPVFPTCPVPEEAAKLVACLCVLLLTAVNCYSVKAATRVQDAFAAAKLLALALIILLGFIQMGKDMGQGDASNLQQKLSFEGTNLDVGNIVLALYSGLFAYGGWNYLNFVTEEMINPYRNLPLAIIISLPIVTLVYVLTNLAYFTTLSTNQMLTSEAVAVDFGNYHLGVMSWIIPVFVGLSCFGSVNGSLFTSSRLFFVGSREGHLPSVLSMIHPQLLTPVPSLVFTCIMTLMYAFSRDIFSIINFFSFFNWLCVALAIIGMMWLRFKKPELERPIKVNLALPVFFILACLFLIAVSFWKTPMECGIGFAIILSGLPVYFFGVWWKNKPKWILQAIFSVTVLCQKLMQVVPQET
# Sequence (P10852 whole entry partner): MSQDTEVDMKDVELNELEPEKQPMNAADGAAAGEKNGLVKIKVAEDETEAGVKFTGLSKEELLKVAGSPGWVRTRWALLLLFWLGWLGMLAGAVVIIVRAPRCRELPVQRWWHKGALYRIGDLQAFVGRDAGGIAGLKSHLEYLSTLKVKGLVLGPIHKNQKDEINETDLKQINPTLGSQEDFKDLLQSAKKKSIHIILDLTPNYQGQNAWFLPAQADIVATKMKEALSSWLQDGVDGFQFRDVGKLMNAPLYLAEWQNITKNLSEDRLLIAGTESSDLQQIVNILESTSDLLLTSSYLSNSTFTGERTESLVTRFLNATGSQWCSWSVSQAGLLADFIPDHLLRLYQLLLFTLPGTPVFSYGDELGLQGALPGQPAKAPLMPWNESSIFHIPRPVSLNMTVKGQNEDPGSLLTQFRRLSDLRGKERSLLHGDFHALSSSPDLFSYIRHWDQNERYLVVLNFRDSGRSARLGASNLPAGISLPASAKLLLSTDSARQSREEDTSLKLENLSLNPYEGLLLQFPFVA
# Type: cell-based, murine
# EXPERIMENTAL CONTEXT: read-out: KI, inhibition of initial rate of transport of BCH
READOUT KIND: Ki (µM)

1) NC1(C(=O)O)CCc2c(cccc2N(CCCl)CCCl)C1 (racemic) [Compound 7]    15.2
